For each of the binders below, state its POC (percent of control, FACS Geo Mean relative to binding to Ch. 1).
# SYSTEM TESTED: T1, mOrai1-hOrai1 ECL2 chimeric protein (human/mouse chimera, UniProt Q8BWG9 1-304 (mouse entry))
# T1 construct: mouse Orai1 with human ECL2; also called Ch
# T1 sequence (Q8BWG9 other isoform, or with tags, fused parts or gaps mutant): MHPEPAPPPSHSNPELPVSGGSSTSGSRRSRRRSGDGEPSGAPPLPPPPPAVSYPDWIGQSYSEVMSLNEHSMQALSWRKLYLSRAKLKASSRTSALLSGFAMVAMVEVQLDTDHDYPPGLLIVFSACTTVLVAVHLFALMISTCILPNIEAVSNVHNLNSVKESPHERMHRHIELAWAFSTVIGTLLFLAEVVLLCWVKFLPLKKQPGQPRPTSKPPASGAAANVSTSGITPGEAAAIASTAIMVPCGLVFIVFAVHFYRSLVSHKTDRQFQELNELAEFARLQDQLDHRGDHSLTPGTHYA
# TEST PROTOCOL: FACS, 293EBNA, RFI-POC grade
# Design: concentration or dose not given beside the values

| BINDER | VALUE |
| --- | --- |
| mAb 2D2.1 (antibody, human IgG2, lambda, V domains shown, fully human IgG2 lambda, Campaign 1; also called mAb 2D.1) VH: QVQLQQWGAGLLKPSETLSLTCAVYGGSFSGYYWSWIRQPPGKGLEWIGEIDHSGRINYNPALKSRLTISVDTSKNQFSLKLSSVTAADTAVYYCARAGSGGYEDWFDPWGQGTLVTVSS VL: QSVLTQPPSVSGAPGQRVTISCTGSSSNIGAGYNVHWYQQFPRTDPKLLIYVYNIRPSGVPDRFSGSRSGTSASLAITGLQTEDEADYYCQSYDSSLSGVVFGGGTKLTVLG | 40 to 100% |
| mAb 5B5.2 (antibody, human IgG2, lambda, V domains shown, fully human IgG2 lambda, Campaign 2; same chains as 5B5.1) VH: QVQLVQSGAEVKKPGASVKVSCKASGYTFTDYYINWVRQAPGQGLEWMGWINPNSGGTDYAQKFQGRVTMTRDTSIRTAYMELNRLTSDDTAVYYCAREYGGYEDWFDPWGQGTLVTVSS VL: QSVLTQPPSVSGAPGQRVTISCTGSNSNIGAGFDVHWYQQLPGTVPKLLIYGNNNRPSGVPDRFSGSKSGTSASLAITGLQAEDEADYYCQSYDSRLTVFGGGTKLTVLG | 40 to 100% |

Field request: POC (percent of control, FACS Geo Mean relative to binding to Ch. 1) | item: mAb 5A4.2 (antibody, human IgG2, lambda, V domains shown, fully human IgG2 lambda, Campaign 2) VH: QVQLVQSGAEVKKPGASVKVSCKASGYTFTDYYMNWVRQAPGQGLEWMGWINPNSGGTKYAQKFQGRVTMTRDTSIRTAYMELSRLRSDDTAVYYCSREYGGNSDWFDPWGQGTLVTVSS VL: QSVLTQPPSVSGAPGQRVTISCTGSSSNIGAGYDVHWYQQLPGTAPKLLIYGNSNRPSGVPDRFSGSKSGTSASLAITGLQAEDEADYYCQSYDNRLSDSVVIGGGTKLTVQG
40 to 100%
